System: Mycobacterium tuberculosis
Experiment: Antitubercular activity against ethionamide-resistant Mycobacterium tuberculosis ATCC 35830 after 5 days by resazurin-based microplate assay
Type: functional
Details: ATCC 35830, 120 h
Label rule met when MIC90 < 0.3 mg/L; otherwise rule not met.

Study these solved cases before continuing.
| Compound | Assayed Target | Discrete Label |
| --- | --- | --- |
| CCNc1n[n+]([O-])c2cc(C)c(OC)cc2[n+]1[O-] | Mycobacterium tuberculosis | rule not met |
| CN(C)c1n[n+]([O-])c2cc3c(cc2[n+]1[O-])CCC3 | Mycobacterium tuberculosis | rule met |

[Q] Is it true that MIC90 reported for `CN(Cc1ccccc1)c1n[n+]([O-])c2cc3c(cc2[n+]1[O-])CCC3` is less than 0.3 mg/L?
[A] rule met

[Q] Please indicate whether the reported MIC90 of `CCNc1n[n+]([O-])c2cccc(C)c2[n+]1[O-]` is strictly below 0.3 mg/L.
[A] rule not met

[Q] In plain terms, does `CC(C)(C)Nc1n[n+]([O-])c2ccccc2[n+]1[O-]` come in under 0.3 mg/L for MIC90?
[A] rule not met

[Q] Strictly below 0.3 mg/L in MIC90? `[O-][n+]1nc(N2CCCC2)[n+]([O-])c2cc3c(cc21)CCC3`
[A] rule not met

[Q] For CC1CCCCN1c1n[n+]([O-])c2cc3c(cc2[n+]1[O-])CCC3 (stereo not drawn) , is the recorded MIC90 below the cut-off of 0.3 mg/L?
[A] rule not met

[Q] API: query returns whether the compound falls strictly under 0.3 mg/L in MIC90. Query: `[O-][n+]1nc(NC2CCC2)[n+]([O-])c2cc3c(cc21)CCC3`
[A] rule not met

[Q] Is MIC90 strictly under 0.3 mg/L for the entry `CN(CCc1ccccc1)c1n[n+]([O-])c2cc3c(cc2[n+]1[O-])CCC3` ?
[A] rule met

[Q] A record lists `[O-][n+]1nc(N2CCCC2)[n+]([O-])c2ccccc21` . Is its MIC90 below 0.3 mg/L?
[A] rule not met

* * *

Test system: Mycobacterium tuberculosis
Assay: Antitubercular activity against ethionamide-resistant Mycobacterium tuberculosis ATCC 35830 after 5 days by resazurin-based microplate assay
Type: functional
Settings: ATCC 35830, 120 h
Collected MIC90 values appear next to each entry.
Give the quantity in µg/mL, number only.

Example results:
| Smiles Code | Units | MIC90 |
| --- | --- | --- |
| CCNc1n[n+]([O-])c2ccccc2[n+]1[O-] | µg/mL | 1.2 |
| CCNc1n[n+]([O-])c2cc3c(cc2[n+]1[O-])CCC3 | µg/mL | 1.2 |

Now look at this entry.
[Q] Param item = `[O-][n+]1nc(N2CCCCC2)[n+]([O-])c2cc3c(cc21)CCC3` ; retrieve measured MIC90.
[A] 0.31
